- target system: Orexin/Hypocretin receptor type 1 (Homo sapiens) (UniProt O43613)
- Sequence (O43613 whole entry, looked up): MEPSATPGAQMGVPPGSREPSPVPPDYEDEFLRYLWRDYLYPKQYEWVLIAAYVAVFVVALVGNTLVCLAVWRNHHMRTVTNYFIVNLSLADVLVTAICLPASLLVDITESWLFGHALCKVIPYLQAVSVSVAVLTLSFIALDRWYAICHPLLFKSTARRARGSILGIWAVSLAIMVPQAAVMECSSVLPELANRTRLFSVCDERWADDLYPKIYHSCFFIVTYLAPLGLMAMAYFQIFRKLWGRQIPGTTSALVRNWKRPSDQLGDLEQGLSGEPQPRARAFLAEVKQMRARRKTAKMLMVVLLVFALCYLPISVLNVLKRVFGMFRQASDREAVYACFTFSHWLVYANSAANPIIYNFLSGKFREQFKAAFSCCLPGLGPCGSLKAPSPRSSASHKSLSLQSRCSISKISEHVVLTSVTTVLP
- test protocol: antagonists of human orexin 1 receptor (OX1R) (AID 485270);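 further: 0% = agonist challenge alone and 100% = reference antagonist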
- condition summary: OX1R-expressing cells, FRET antagonist read-out; at 6.6 µM; stronger effect = higher value
The whole screen tested about 330,000 compounds, of which about 5,800 (1.8%) were called active. Many of the other results were omitted from the sample, so actives are more common in it than they were.
measurement type: inhibition (%)
The reply should be a number in %, with the unit left off.

Consider the reported inhibition for these molecules:
{"molecule": "Cc1cc(CNC(=O)c2cccc([N+](=O)[O-])c2)c2ccccc2n1", "inhibition, %": 58.6}
{"molecule": "Cc1cc(C)nc(N/N=C/c2ccc([N+](=O)[O-])o2)n1", "inhibition, %": 60.5}
{"molecule": "O=C(CCC(=O)c1cccs1)Nc1nc2ccccc2s1", "inhibition, %": 6.48}
{"molecule": "CC(C)N(C(=O)[C@H]1C[C@H](CC(=O)NC(C)(C)C)C(=O)N2CCc3c([nH]c4ccc(Cl)cc34)[C@]12C)C(C)C", "inhibition, %": 8.54}
{"molecule": "CCN(C(=O)CSc1cccc[n+]1[O-])c1ccccc1", "inhibition, %": 0.91}

Query block: Give Orexin/Hypocretin receptor type 1 (Homo sapiens) (UniProt O43613) inhibition for `O=C(CNC(=O)c1ccccc1)Oc1ccc([N+](=O)[O-])cc1`
Result block: 19.6

Query block: And `O=C(NC(Nc1nc2ccc([N+](=O)[O-])cc2s1)(C(F)(F)F)C(F)(F)F)c1ccccc1` ?
Result block: 89.4

Query block: And `C[C@H]1COC(=O)[C@H](CC(=O)OC(C)(C)C)C/C=C\C[C@@H](CC(=O)N[C@H](CO)Cc2ccccc2)C(=O)N1` ?
Result block: 0.64

Query block: And CCC(CO)Oc1cc(NC(=O)c2ccc(Cl)cc2)c2ncn(C(C)C)c2c1 (centres undefined) ?
Result block: 0.25
